Measured values drawn from patent US10844052B2 for this set.

# Test system: PC3 prostate cancer cells
# ASSAY_OVERVIEW: Cell viability of prostate cancer PC3 cells after 72 hours treatment
# Type: cell-based
# STATED_CONDITIONS: Homo sapiens, PC-3, 20 μM
Would you kindly list viability at 20 µM for each of these molecules?
Your answer is read as %, so omit the unit and give the number.

Tell me the measured viability at 20 µM of COc1ccc(CCn2c(-c3ccc(N(CCOC(C)=O)CCOC(C)=O)cc3)nc3cc(C(CC(N)=O)NCC4CCCCC4)ccc32)cc1 (stereo not shown) [LLS56Ac] , please.
55

Subsequent entry: NC(=O)CC(NCc1cccc2ccccc12)c1ccc2c(c1)nc(-c1ccc(N(CCO)CCO)cc1)n2Cc1ccc(C(F)(F)F)cc1 (stereo not shown)
8

Subsequent entry: NC(=O)CC(NCc1cccc2ccccc12)c1ccc2c(c1)nc(-c1ccc(N(CCO)CCO)cc1)n2Cc1ccc(OC(F)(F)F)cc1 (stereo not shown)
0

Subsequent entry: NC(=O)CC(NCc1ccc2[nH]ncc2c1)c1ccc2c(c1)nc(-c1ccc(N(CCO)CCO)cc1)n2Cc1ccc(OC(F)(F)F)cc1 (stereo not shown)
92

Subsequent entry: COc1ccc(CCn2c(-c3ccc(N(CCO)CCO)cc3)nc3cc(C(CC(N)=O)NCc4ccc5[nH]ncc5c4)ccc32)cc1 (stereo not shown)
105

Subsequent entry: NC(=O)CC(NCc1cccn1S(=O)(=O)c1ccccc1)c1ccc2c(c1)nc(-c1ccc(N(CCO)CCO)cc1)n2CCCN1CCCCC1 (stereo not shown)
84

Subsequent entry: COc1cccc(Cn2c(-c3ccc(N(CCO)CCO)cc3)nc3cc(C(CC(N)=O)NCc4ccc5[nH]ncc5c4)ccc32)c1 (stereo not shown)
91
